Values were extracted from patent US9409952B2.

test: Metabolic stability in human hepatic microsome; format: in vitro ADME; conditions: human, microsomes, pH 7.4, CL NADPH(+)
Non-standard residues stand in square brackets, D forms with d. Residues, ends and D or L forms follow the SMILES beside them. *: point of attachment. NMeL = CN[C@@H](CC(C)C)C(=O)O; NMeA = CN[C@@H](C)C(=O)O; dNMeA = CN[C@H](C)C(=O)O; β3hA = C[C@H](N)CC(=O)O; tBu = CC(C)(C)*
quantity kind: microsomal CLint at 1 uM (µL/min/mg)
Return type: number; implicit unit µL/min/mg.

Input line: Find the recorded microsomal CLint at 1 uM belonging to CC(C)C[C@@H]1NC(=O)[C@H]([C@@H](C)O)NC(=O)[C@@H]2CCCN2C(=O)[C@H](Cc2ccccc2)NC(=O)[C@H](COC(C)(C)C)NC(=O)[C@H](CC(C)C)N(C)C(=O)[C@H](Cc2ccccc2)NC(=O)[C@@H](C)N(C)C(=O)C[C@H](C)NC(=O)CNC(=O)[C@H](C)N(C)C(=O)[C@H](C)N(C)C1=O [DP-752] (cyclo(F[NMeL]S(tBu)FPTL[NMeA][NMeA]G[β3hA][dNMeA])) and report it.
Output line: 33
